Hello, the source for this data is ChEMBL document CHEMBL4368907, in case you need it.

Test system: Cholecystokinin receptor type A (Homo sapiens, UniProt P32238)
Sequence (P32238 whole entry): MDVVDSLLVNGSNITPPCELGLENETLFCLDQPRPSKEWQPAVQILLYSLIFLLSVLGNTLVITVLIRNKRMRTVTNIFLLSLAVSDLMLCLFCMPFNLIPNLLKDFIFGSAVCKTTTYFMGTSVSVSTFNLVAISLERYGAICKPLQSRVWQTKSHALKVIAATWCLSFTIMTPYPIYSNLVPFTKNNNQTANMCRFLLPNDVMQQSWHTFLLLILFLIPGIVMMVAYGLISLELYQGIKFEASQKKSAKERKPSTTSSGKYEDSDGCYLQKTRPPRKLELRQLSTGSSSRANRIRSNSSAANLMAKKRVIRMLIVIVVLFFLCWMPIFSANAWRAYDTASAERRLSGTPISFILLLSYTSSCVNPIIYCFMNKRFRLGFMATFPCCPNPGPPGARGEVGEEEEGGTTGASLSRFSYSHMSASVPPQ
Protocol text: Agonist activity at human CCK1R expressed in human 1321N1 cells assessed as IP1 accumulation after 1 hr by HTRF assay
Numbered stars: 1 amine (or outer) side, 2 acyl side, 3 side chain; on linkers, the order of the positions; unused ones are H or OH. Square brackets hold non-standard residues; d marks the D form. Side chains are listed from the residue outwards. Peptide text beside a SMILES is read from it. * marks the point of attachment. sY = N[C@@H](Cc1ccc(OS(=O)(=O)O)cc1)C(=O)O; C18 diacid = O=C(O)CCCCCCCCCCCCCCCCC(=O)*; γGlu = O=C(O)[C@H](CCC(=O)[*:2])N[*:1]; 1Nal = N[C@@H](Cc1cccc2ccccc12)C(=O)O; NMeF = CN[C@@H](Cc1ccccc1)C(=O)O; NMeD = CN[C@@H](CC(=O)O)C(=O)O; NH(2-Me-phenyl) = Cc1ccccc1N*; Nle = CCCC[C@H](N)C(=O)O; AEEA = NCCOCCOCC(=O)O; CO = O=C([*:1])[*:2]
Readout type: pEC50
On this scale, pEC50 is minus log10 of a concentration expressed in M (mol/L).

## Input Requested field: pEC50. Item: CCCC[C@H](NC(=O)[C@H](Cc1ccc(OS(=O)(=O)O)cc1)NC(=O)[C@H](CC(=O)O)NC(=O)COCCOCCNC(=O)COCCOCCNC(=O)CC[C@H](NC(=O)CCCCCCCCCCCCCCCCC(=O)O)C(=O)O)C(=O)NCC(=O)N[C@@H](Cc1c[nH]c2ccccc12)C(=O)N[C@@H](CCCC)C(=O)N[C@@H](CC(=O)O)C(=O)N[C@@H](Cc1cccc2ccccc12)C(N)=O ({C18 diacid-γGlu-AEEA-AEEA}-D[sY][Nle]GW[Nle]D[1Nal]-NH2)
## Output 9.79

## Input Requested field: pEC50. Item: CCCC[C@H](NC(=O)[C@H](Cc1ccc(OS(=O)(=O)O)cc1)NC(=O)[C@H](CC(=O)O)NC(=O)COCCOCCNC(=O)COCCOCCNC(=O)CC[C@H](NC(=O)CCCCCCCCCCCCCCCCC(=O)O)C(=O)O)C(=O)NCC(=O)N[C@@H](Cc1c[nH]c2ccccc12)C(=O)N[C@H](C(=O)N[C@@H](CC(=O)O)C(=O)N[C@@H](Cc1ccccc1)C(N)=O)[C@@H](C)CC ({C18 diacid-γGlu-AEEA-AEEA}-D[sY][Nle]GWIDF-NH2)
## Output 9.96

## Input Requested field: pEC50. Item: CCCC[C@H](NC(=O)[C@H](Cc1ccc(OS(=O)(=O)O)cc1)NC(=O)[C@H](CC(=O)O)NC(=O)COCCOCCNC(=O)COCCOCCNC(=O)CC[C@H](NC(=O)CCCCCCCCCCCCCCCCC(=O)O)C(=O)O)C(=O)NCC(=O)N[C@@H](Cc1c[nH]c2ccccc12)C(=O)N[C@@H](CCCC)C(=O)N(C)[C@@H](CC(=O)O)C(=O)N[C@@H](Cc1cccc2ccccc12)C(N)=O ({C18 diacid-γGlu-AEEA-AEEA}-D[sY][Nle]GW[Nle][NMeD][1Nal]-NH2)
## Output 9.30

## Input Requested field: pEC50. Item: CCCC[C@H](NC(=O)[C@H](Cc1ccc(OS(=O)(=O)O)cc1)NC(=O)[C@H](CC(=O)O)NC(=O)COCCOCCNC(=O)COCCOCCNC(=O)CC[C@H](NC(=O)CCCCCCCCCCCCCCCCC(=O)O)C(=O)O)C(=O)NCC(=O)N[C@@H](Cc1c[nH]c2ccccc12)C(=O)N[C@@H](CCCC)C(=O)N[C@@H](CC(=O)O)C(=O)N[C@@H](Cc1c[nH]c2ccccc12)C(N)=O ({C18 diacid-γGlu-AEEA-AEEA}-D[sY][Nle]GW[Nle]DW-NH2)
## Output 9.49

## Input Requested field: pEC50. Item: CCCC[C@H](NC(=O)[C@H](Cc1ccc(OS(=O)(=O)O)cc1)NC(=O)[C@H](CC(=O)O)NC(=O)COCCOCCNC(=O)COCCOCCNC(=O)CC[C@H](NC(=O)CCCCCCCCCCCCCCCCC(=O)O)C(=O)O)C(=O)NCC(=O)N[C@@H](Cc1c[nH]c2ccccc12)C(=O)N[C@@H](CCCCNC(=O)Nc1ccccc1C)C(=O)N(C)[C@@H](CC(=O)O)C(=O)N(C)[C@@H](Cc1ccccc1)C(N)=O ({C18 diacid-γGlu-AEEA-AEEA}-D[sY][Nle]GWK([CO-NH(2-Me-phenyl)])[NMeD][NMeF]-NH2)
## Output 9.94
